System: CH58TF infected primary CD4+ T-cells
EXPERIMENTAL_PROTOCOL: Recognition of HIV-1 infected cells by 17b (flow cytometry cell-surface staining)
Type: cell-based
CONDITION_LABEL: Human immunodeficiency virus 1, T-cell, read-out: Fold Over DMSO (17b, n = 1)
PROPERTY_MEASURED: fold induction at 50 µM
// no unit, no text: just the number

-- ask For the molecule shown here, O=C(Nc1ccc(Cl)c(F)c1)C1Cc2ccccc2N(S(=O)(=O)c2ccccc2)C1 (centres unmarked) , give the reported fold induction at 50 µM.
-- reply 0.911

-- ask Next up: Cn1cnc(S(=O)(=O)N2CCOC(C(=O)Nc3ccc(Cl)c(F)c3)C2)c1 (centres unmarked)
-- reply 3.61

-- ask Next up: O=C(Nc1ccc(Cl)c(F)c1)C1CCCOC1 (centres unmarked)
-- reply 3.69

-- ask Next up: CS(=O)(=O)N1CCC[C@H](C(=O)Nc2cccc(Cl)c2)C1 [(S)-MCG-III-027-B01]
-- reply 1.04

-- ask Next up: CCS(=O)(=O)N1CCC[C@H](C(=O)Nc2ccc(Cl)c(Br)c2)C1 [(S)-MCG-III-085-C05]
-- reply 1.77

-- ask Next up: CS(=O)(=O)N1CCC[C@H](C(=O)Nc2cccc(C(F)(F)F)c2)C1 [(S)-MCG-III-027-B04]
-- reply 1.01

-- ask Next up: CS(=O)(=O)N1CCC[C@H](C(=O)Nc2ccc(F)c(Cl)c2)C1 [(S)-MCG-III-085-A02]
-- reply 2.15

-- ask Next up: O=C(Nc1ccc(F)c(Cl)c1)[C@H]1CCCN(S(=O)(=O)c2ccccc2)C1 [(S)-MCG-III-085-D02]
-- reply 2.54

-- ask Next up: COC(=O)N1CCC[C@H](C(=O)Nc2ccc(Cl)c(F)c2)C1 [(S)-MCG-III-188-A01]
-- reply 7.11

-- ask Next up: COc1cccc(NC(=O)[C@H]2CCCN(S(C)(=O)=O)C2)c1 [(S)-MCG-III-027-B05]
-- reply 1.03

-- ask Next up: O=C(Nc1ccc(Cl)c(F)c1)C1CN(S(=O)(=O)c2ccccc2)CCO1 (centres unmarked)
-- reply 2.64

-- ask Next up: CS(=O)(=O)N1CCOC(C(=O)Nc2ccc(Cl)c(F)c2)C1 (centres unmarked)
-- reply 2.63

-- ask Next up: CS(=O)(=O)N1CCC[C@H](C(=O)Nc2ccc(C(F)(F)F)cc2)C1 [(S)-MCG-III-027-A04]
-- reply 1.07

-- ask Next up: CCS(=O)(=O)N1CCC[C@H](C(=O)Nc2ccc(Br)c(Cl)c2)C1 [(S)-MCG-III-085-C06]
-- reply 3.1

-- ask Next up: O=C(Nc1ccc(Cl)c(Br)c1)[C@H]1CCCN(S(=O)(=O)c2ccccc2)C1 [(S)-MCG-III-085-D05]
-- reply 5.58

-- ask Next up: CCS(=O)(=O)N1CCC[C@H](C(=O)Oc2ccc(Cl)c(F)c2)C1 [(S)-MCG-III-213-A02]
-- reply 1.07

-- ask Next up: CS(=O)(=O)N1CCC[C@H](C(=O)Oc2ccc(Cl)c(F)c2)C1 [(S)-MCG-III-213-A01]
-- reply 1.08

====

System: CH58TF infected primary CD4+ T-cells
EXPERIMENTAL_PROTOCOL: HIV+ patient sera/plasma recognition of CH58TF infected primary CD4+ T-cells (flow cytometry cell-surface staining)
Type: cell-based, HIV-1
CONDITION_LABEL: Human immunodeficiency virus 1, T-cell, read-out: Fold Over DMSO (patient sera, n = 3)
Description: […] Briefly, Primary CD4 T cells isolated from PBMC were infected with HIV-1CH58TF for 48 hours. […] Correlation between cell-surface staining with HIV+ plasma and ADCC was calculated using the Spearman rank correlation (FIG. 15D).
PROPERTY_MEASURED: fold induction at 50 µM
// no unit, no text: just the number

-- ask Find fold induction at 50 µM (CH58TF infected primary CD4+ T-cells) for the entry CCS(=O)(=O)N1CCC(C(=O)Nc2ccc(Cl)c(F)c2)C1 (centres unmarked)
-- reply 1.64

-- ask Next up: COc1cccc(NC(=O)[C@H]2CCCN(S(C)(=O)=O)C2)c1 [(S)-MCG-III-027-B05]
-- reply 1.71

-- ask Next up: COc1ccc(S(=O)(=O)N2CCC[C@H](C(=O)Nc3ccc(Cl)c(F)c3)C2)cc1 [(S)-MCG-III-116-A05]
-- reply 1.1

-- ask Next up: O=C(Nc1ccc(Cl)c(F)c1)C1CNc2ccccc2C1 (centres unmarked)
-- reply 1.82

-- ask Next up: O=C(Nc1ccc(Cl)c(F)c1)C1CN(S(=O)(=O)c2ccccc2)CCO1 (centres unmarked)
-- reply 1.7

-- ask Next up: CCS(=O)(=O)N1CCCC(NC(=O)c2ccc(Cl)c(F)c2)C1 (centres unmarked)
-- reply 1.05

-- ask Next up: O=C(Oc1ccc(Cl)c(F)c1)[C@H]1CCCN(S(=O)(=O)c2ccccc2)C1 [(S)-MCG-III-213-A03]
-- reply 1.08

-- ask Next up: O=C(Nc1ccc(F)c(F)c1)[C@H]1CCCN(S(=O)(=O)c2ccccc2)C1 [(S)-MCG-III-085-D04]
-- reply 1.84

-- ask Next up: CS(=O)(=O)N1CCC(C(=O)Nc2ccc(Cl)c(F)c2)CC1
-- reply 1.14

-- ask Next up: N#Cc1ccc(S(=O)(=O)N2CCC[C@H](C(=O)Nc3ccc(Cl)c(F)c3)C2)cc1 [(S)-MCG-III-116-A06]
-- reply 1.15

-- ask Next up: O=C(Nc1ccc(Cl)c(Cl)c1)[C@H]1CCCN(S(=O)(=O)c2ccccc2)C1 [(S)-MCG-III-085-D03]
-- reply 2.03

-- ask Next up: CCS(=O)(=O)N1CCC[C@H](C(=O)Oc2ccc(Cl)c(F)c2)C1 [(S)-MCG-III-213-A02]
-- reply 1.03

-- ask Next up: CC(C)(C)OC(=O)N1CCN(S(C)(=O)=O)CC1C(=O)Nc1ccc(Cl)c(F)c1 (centres unmarked)
-- reply 0.982

-- ask Next up: CS(=O)(=O)N1CCC[C@H](C(=O)Nc2ccc(Cl)c(Br)c2)C1 [(S)-MCG-III-085-A05]
-- reply 1.11

-- ask Next up: O=C(Nc1ccc(Br)c(Cl)c1)[C@H]1CCCN(S(=O)(=O)c2ccccc2)C1 [(S)-MCG-III-085-D06]
-- reply 2

-- ask Next up: CCS(=O)(=O)N1CCC[C@H](C(=O)Nc2ccc(F)c(Cl)c2)C1 [(S)-MCG-III-085-C02]
-- reply 1.19

-- ask Next up: CS(=O)(=O)N1CCC[C@H](C(=O)Nc2cccc(C(F)(F)F)c2)C1 [(S)-MCG-III-027-B04]
-- reply 1.47
